# TARGET_OR_TEST_SYSTEM: full length Keap1 protein / full length NRF2 protein (Homo sapiens, UniProt Q14145)
# Construct: full length NRF2 protein and full length Keap1 protein (Keap1 exists a dimer) are used; His
# Sequence (Q14145 whole entry): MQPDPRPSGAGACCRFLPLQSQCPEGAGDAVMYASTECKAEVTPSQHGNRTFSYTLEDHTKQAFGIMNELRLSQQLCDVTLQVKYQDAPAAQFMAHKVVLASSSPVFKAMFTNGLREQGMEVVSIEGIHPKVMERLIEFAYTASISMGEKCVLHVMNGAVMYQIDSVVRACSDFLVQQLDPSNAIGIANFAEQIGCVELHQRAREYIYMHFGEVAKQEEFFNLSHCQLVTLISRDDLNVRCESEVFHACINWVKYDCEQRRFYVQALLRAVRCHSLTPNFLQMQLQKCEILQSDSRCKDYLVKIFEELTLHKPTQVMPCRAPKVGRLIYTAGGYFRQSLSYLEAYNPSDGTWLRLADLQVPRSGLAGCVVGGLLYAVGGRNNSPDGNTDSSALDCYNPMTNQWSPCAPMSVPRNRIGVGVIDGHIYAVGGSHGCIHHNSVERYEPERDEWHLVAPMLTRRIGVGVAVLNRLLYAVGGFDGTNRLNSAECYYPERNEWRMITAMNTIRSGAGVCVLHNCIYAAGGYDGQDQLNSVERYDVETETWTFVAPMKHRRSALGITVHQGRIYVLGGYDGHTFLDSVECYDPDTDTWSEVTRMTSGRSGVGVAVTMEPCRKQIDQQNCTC
# ASSAY_TEXT: NRF2-Keap1 TR-FRET Low Protein Assay
# Format: binding
# CONDITION_PARAMETERS: 1.25 nM Keap1 FlagHis and 2.5 nM biotin-NRF2 added
# Procedure: NRF2-Keap1 TR-FRET Low Protein Assay In the NRF2-Keap1 TR-FRET (time-resolved fluorescence resonance energy transfer) low protein assay, full length NRF2 protein and full length Keap1 protein (Keap1 exists a dimer) are used. […] Plates are spun at 500 rpm for 1 minute, incubated for 1 hour at RT, and read on an Envision plate reader using a 320 nm excitation filter and 615 nm and 665 nm emission filters. […]
REPORTED_ENDPOINT: IC50

COMPOUND	TARGET_OR_TEST_SYSTEM	REPORTED_VALUE
CC[C@H]1c2ccccc2OCCN1Cc1cccc(-c2cccc(-n3ncc(C(=O)O)c3[C@@H]3C[C@H]3c3cn(C)nn3)c2)c1 (single isomer, unassigned; isomer 2) [Example 121]	full length Keap1 protein / full length NRF2 protein (Homo sapiens, UniProt Q14145)	< 10 nM
Cn1cc(C2CC2c2c(C(=O)O)cnn2-c2cccc(-c3cccc(OCC4CCCCC4)c3)c2)nn1 (stereo not shown)	full length Keap1 protein / full length NRF2 protein (Homo sapiens, UniProt Q14145)	10 to 100 nM
Cn1cc([C@H]2C[C@@H]2c2c(C(=O)O)cnn2-c2cccc(-c3cccc(OC[C@H]4CC[C@H](Cl)CC4)c3)c2)nn1 (racemic)	full length Keap1 protein / full length NRF2 protein (Homo sapiens, UniProt Q14145)	10 to 100 nM
O=C(O)c1cnn(-c2cccc(-c3cccc(C(=O)N4C5CCCC4CCC5)c3F)c2)c1C1CC1	full length Keap1 protein / full length NRF2 protein (Homo sapiens, UniProt Q14145)	10 to 100 nM
Cn1cc(C2CC2c2c(C(=O)O)cnn2-c2cccc(-c3cccc(-n4ncc5c4C(C)(C)CC5)c3)c2)nn1 (stereo not shown)	full length Keap1 protein / full length NRF2 protein (Homo sapiens, UniProt Q14145)	< 10 nM
C[C@H](Oc1cccc(-c2cccc(-n3ncc(C(=O)OCOC(=O)OC(C)(C)C)c3[C@@H]3C[C@H]3c3cn(C)nn3)c2)c1)C1CCCCC1	full length Keap1 protein / full length NRF2 protein (Homo sapiens, UniProt Q14145)	100 to 1000 nM
CC(Oc1cccc(-c2cccc(-n3ncc(C(=O)O)c3[C@H]3C[C@@H]3c3cn(C(C)C)nn3)c2)c1)C1CCCCC1 (mixture of isomers)	full length Keap1 protein / full length NRF2 protein (Homo sapiens, UniProt Q14145)	10 to 100 nM
Cc1c(O[C@@H](C)C2CCCCC2)cccc1-c1cccc(-n2ncc(C(=O)O)c2[C@H]2C[C@@H]2c2cn(C)nn2)c1 (racemic)	full length Keap1 protein / full length NRF2 protein (Homo sapiens, UniProt Q14145)	1000 to 10000 nM
Cc1cc([C@@H]2C[C@H]2c2c(C(=O)O)cnn2-c2cccc(-c3cccc(O[C@@H](C)C4CCCCC4)c3)c2)on1	full length Keap1 protein / full length NRF2 protein (Homo sapiens, UniProt Q14145)	100 to 1000 nM
CC(Cc1cccc(-c2cccc(-n3ncc(C(=O)O)c3[C@@H]3C[C@H]3c3cn(C)nn3)c2)c1)C1CCCCC1 (single isomer, unassigned) [Example 116e]	full length Keap1 protein / full length NRF2 protein (Homo sapiens, UniProt Q14145)	10 to 100 nM
CCOC[C@H]1CCCN1C(=O)c1cccc(-c2cccc(-n3ncc(C(=O)O)c3[C@@H]3C[C@H]3c3cn(C)nn3)c2)c1F	full length Keap1 protein / full length NRF2 protein (Homo sapiens, UniProt Q14145)	< 10 nM
Cn1cc(C2CC2c2c(C(=O)O)cnn2-c2cccc(-c3cccc(OC4CCCCC4)c3)c2)nn1 (stereo not shown)	full length Keap1 protein / full length NRF2 protein (Homo sapiens, UniProt Q14145)	10 to 100 nM
C[C@H](Oc1cccc(-c2cccc(-n3ncc(C(=O)O)c3[C@@H]3C[C@H]3c3c[nH]nn3)c2)c1)C1CCCCC1	full length Keap1 protein / full length NRF2 protein (Homo sapiens, UniProt Q14145)	< 10 nM
